system: rice plant “Nihonbare”; assay: Test 11: production of Sakuranetin and Momilactone-A in wounded rice blades treated with L-cysteine/D-glucose and comparative solutions; conditions: rice fifth blades, 25 μl test solution on 1 mm cuts, 60 hours at 25° C. under light
property: Amount of Sakuranetin

Per the record, O=C[C@H](O)[C@@H](O)[C@H](O)[C@H](O)CO [Section GL1, D-glucose] has Amount of Sakuranetin of not detected

Per the record, N[C@@H](CCC(=O)N[C@@H](CS)C(=O)NCC(=O)O)C(=O)O [Section GT1, Glutathione of reduced type] has Amount of Sakuranetin of not detected

Per the record, N[C@@H](CS)C(=O)O [Section C1, L-cysteine] has Amount of Sakuranetin of 79.10 ng/spot

Per the record, N.N.O=S(=O)(O)O [Section AS1, Ammonium sulfate] has Amount of Sakuranetin of not detected
